# inhibition at 20 µM values compiled below
Target: cdc42 (Homo sapiens, UniProt P60953)
Construct: made in house
Sequence (P60953 whole entry): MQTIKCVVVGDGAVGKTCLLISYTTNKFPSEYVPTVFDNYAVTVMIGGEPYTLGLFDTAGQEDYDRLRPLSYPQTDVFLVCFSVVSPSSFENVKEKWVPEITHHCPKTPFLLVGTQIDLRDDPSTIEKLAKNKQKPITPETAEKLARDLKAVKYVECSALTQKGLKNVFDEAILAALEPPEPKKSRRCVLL
Assay: Cdc42 GTP Binding Domain Inhibition Assay
Conditions: read-out: Cdc42: % inh.
observedProperty: inhibition at 20 µM

compound=COc1ccnc(Nc2nc(-c3nccn3C)nn3cc(-c4ccn(C(C)C)n4)c(C)c23)c1 system="cdc42 (Homo sapiens, UniProt P60953)" result="76 to 100%"
compound="COc1cccc(-c2cn3nc(-c4nccn4C)nc(N[C@@H]4CC[C@@H](OC)C4)c3c2-c2ccccc2)c1F (racemic)" system="cdc42 (Homo sapiens, UniProt P60953)" result="1 to 25%"
compound=Cc1c(-c2ccn(C(C)C)n2)cn2nc(-c3nccn3C)nc(Nc3nc(C4CC4)no3)c12 system="cdc42 (Homo sapiens, UniProt P60953)" result="1 to 25%"
compound="COc1cccc(-c2cn3nc(-c4nccn4C)nc(N[C@@H]4CC[C@@H](OC)C4)c3c2-c2ccccn2)c1F (racemic)" system="cdc42 (Homo sapiens, UniProt P60953)" result="50 to 75%"
compound=Cc1c(-c2ccn(C(C)C)n2)cn2nc(-c3nccn3C)nc(Nc3ccncn3)c12 system="cdc42 (Homo sapiens, UniProt P60953)" result="50 to 75%"
compound=COc1cc(-c2cn3nc(-c4nccn4C)nc(Nc4cc(OC)ncn4)c3c2C)ccn1 system="cdc42 (Homo sapiens, UniProt P60953)" result="26 to 49%"
compound=Cc1c(-c2ccn(C(C)C)n2)cn2nc(-c3nccn3C)nc(Nc3ccncc3)c12 system="cdc42 (Homo sapiens, UniProt P60953)" result="1 to 25%"

---

Molecular target: Rac-1 (Homo sapiens)
Construct: made in house
Assay: Ras GTP Binding Domain Inhibition Assay (Ras Superfamily Assay)
Details: read-out: Rac-1: % inh.
# inhibition at 20 µM values compiled below
observedProperty: inhibition at 20 µM

compound="COc1ccnc(Nc2nc(-c3nccn3C)nn3cc(-c4ccn(C)n4)c(C)c23)n1.Cl [Compound 114, hydrochloride salt]" result="76 to 100%"
compound="CO[C@H]1C[C@@H](Nc2nc(-c3nccn3C)nn3cc(-c4cccnc4)c(-c4ccccc4)c23)C1 [Compound 191]" result="1 to 25%"
compound="COc1ccnc(Nc2nc(-c3nccn3C)nn3cc(-c4ccn(C)n4)c(C(=O)NCC(F)(F)F)c23)c1 [Compound 174]" result="50 to 75%"
compound="COCCCS(=O)(=O)Nc1nc(-c2nccn2C)nn2cc(-c3ccccc3)c(-c3ccccc3)c12 [Compound 213]" result="50 to 75%"
compound="COCCNc1nc(-c2nccn2C)nn2cc(-c3cccc(OC)c3Cl)c(-c3ccccc3)c12 [Compound 29]" result=0%
compound="COc1ccnc(Nc2nc(-c3nccn3CCNC(=O)CCCC[C@H]3SC[C@H]4NC(=O)N[C@H]43)nn3cc(-c4ccn(C)n4)c(C)c23)c1 [Compound 216]" result="76 to 100%"
compound="CCNC(=O)c1c(-c2ccn(C)n2)cn2nc(-c3nccn3C)nc(Nc3cc(OC)ccn3)c12 [Compound 173]" result="50 to 75%"
compound="COc1cccc(-c2cn3nc(-c4nccn4C)nc(N[C@@H]4CC[C@@H](OC)C4)c3c2-c2ccccc2)c1Cl.Cl (racemic) [Compound 34, hydrochloride]" result="26 to 49%"
compound="COc1cnc(Nc2nc(-c3nccn3C)nn3cc(-c4ccn(C)n4)c(C)c23)nc1.Cl [Compound 117, hydrochloride salt]" result="1 to 25%"
compound="CO[C@H]1CC[C@@H](Nc2nc(-c3nccn3C)nn3cc(-c4ccn(C)n4)c(C)c23)C1 (racemic) [Compound 133]" result="1 to 25%"
compound="CO[C@H]1C[C@H](Nc2nc(-c3nccn3C)nn3cc(-c4ccncc4)c(-c4ccccc4)c23)C1 [Compound 199]" result="26 to 49%"
compound="CO[C@H]1C[C@H](Nc2nc(-c3nccn3C)nn3cc(-c4cnccc4C)c(-c4ccccc4)c23)C1 [Compound 218]" result="1 to 25%"
compound="CCOc1ccc(Nc2nc(-c3nccn3C)nn3cc(-c4ccn(C)n4)c(C)c23)nc1 [Compound 229]" result="76 to 100%"
compound="COc1ccnc(Nc2nc(-c3nccn3C)nn3cc(-c4c(F)cccc4OC)c(-c4ccccc4)c23)c1 [Compound 217]" result="50 to 75%"

---

Molecular target: Rho-A (Homo sapiens, UniProt P61586)
Construct: made in house
Sequence (P61586 whole entry): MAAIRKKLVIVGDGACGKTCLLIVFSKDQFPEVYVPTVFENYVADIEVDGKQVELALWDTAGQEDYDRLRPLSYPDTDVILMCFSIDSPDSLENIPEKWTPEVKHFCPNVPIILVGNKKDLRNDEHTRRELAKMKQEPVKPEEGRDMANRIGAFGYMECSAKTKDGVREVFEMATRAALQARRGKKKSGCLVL
Experiment: Ras GTP Binding Domain Inhibition Assay (Ras Superfamily Assay)
Conditions: read-out: Rho-A: % inh..
# inhibition at 20 µM values compiled below
observedProperty: inhibition at 20 µM

molecule=COc1ccc(Nc2nc(-c3nccn3C)nn3cc(-c4ccn(C(C)C)n4)c(C)c23)cn1 system="Rho-A (Homo sapiens, UniProt P61586)" observedproperty="inhibition at 20 µM" result="1 to 25%"
molecule="CO[C@H]1CC[C@@H](Nc2nc(-c3ccccn3)nn3cc(-c4ccn(C(C)C)n4)c(C)c23)C1 (racemic)" system="Rho-A (Homo sapiens, UniProt P61586)" observedproperty="inhibition at 20 µM" result=0%
molecule="CO[C@H]1CC[C@@H](Nc2nc(-c3nccn3C)nn3cc(-c4ccn(C(C)C)n4)c(C(C)C)c23)C1 (racemic)" system="Rho-A (Homo sapiens, UniProt P61586)" observedproperty="inhibition at 20 µM" result="1 to 25%"
molecule=COCCNc1nc(-c2nccn2C)nn2cc(-c3ccn(C(C)C)n3)c(C)c12 system="Rho-A (Homo sapiens, UniProt P61586)" observedproperty="inhibition at 20 µM" result="26 to 49%"

---

Test system: Erk1/2 phosphorylation
Experiment: Erk1/2 Phosphorylation Assay (western blot), Panc-1
Assay type: cell-based, human
Settings: at 10 μM, * = activation
observedProperty: % inh of Erk1/2 phosphorylation in Panc-1

molecule="Cn1ccnc1-c1nc(OCCN2CCCC2)c2c(-c3ccccc3)ccn2n1 [Compound 41]" system="Erk1/2 phosphorylation" result="0 (0% inhibition)"
molecule="COCCNc1nc(-c2nccn2C)nn2cc(-c3ccn(C(C)C)n3)c(C(C)C)c12 [Compound 35]" system="Erk1/2 phosphorylation" result="0 (0% inhibition)"
molecule="COCC1CCN(c2nc(-c3nccn3C)nn3cc(-c4ccn(C(C)C)n4)c(-c4ccccc4)c23)C1.Cl (racemic) [Compound 19]" system="Erk1/2 phosphorylation" result="0 (0% inhibition)"

---

System: KRas Q61H mutant
Test: Ras GTP Binding Domain Inhibition Assay (Ras Superfamily Assay)
Details: 20 μM compound, without SOS
observedProperty: KRas Q61H mutant: % inh.

compound="COC1CCCN(c2nc(-c3ccccn3)nn3cc(-c4ccn(C(C)C)n4)c(-c4ccccc4)c23)C1 (racemic) [Compound 27]" result="A (A = 1-25% inhibition)"
compound="CO[C@H]1CC[C@@H](Nc2nc(-c3ccccn3)nn3cc(-c4ccn(C(C)C)n4)c(-c4ccccc4)c23)C1 (racemic) [Compound 24]" result="0 (0 = 0% inhibition)"
compound="Cc1c(-c2ccn(C(C)C)n2)cn2nc(-c3nccn3C)nc(Nc3cc(C4CC4)no3)c12 [Compound 69]" result="A (A = 1-25% inhibition)"
compound="COc1cccc(-c2cn3nc(-c4nccn4C)nc(N[C@H]4C[C@@H](OC)C4)c3c2-c2ccccc2)c1Cl [Compound 31]" result="0 (0 = 0% inhibition)"
compound="Cn1ccnc1-c1nc(O)c2c(-c3ccccc3)ccn2n1 [Compound 39]" result="A (A = 1-25% inhibition)"
compound="CO[C@H]1CC[C@@H](Nc2nc(-c3nccn3C)nn3cc(-c4ccn(C(C)C)n4)c(C)c23)C1 (racemic) [Compound 1]" result="0 (0 = 0% inhibition)"
compound="COCC1CCN(c2nc(-c3ccccn3)nn3cc(-c4ccn(C(C)C)n4)c(C)c23)C1 (racemic) [Compound 10]" result="A (A = 1-25% inhibition)"
compound="COCCNc1nc(-c2nccn2C)nn2cc(-c3cccc(OC)c3Cl)c(-c3ccccc3)c12 [Compound 29]" result="0 (0 = 0% inhibition)"
compound="COCCNc1nc(-c2nccn2C)nn2cc(-c3ccn(C(C)C)n3)c(C(C)C)c12 [Compound 35]" result="A (A = 1-25% inhibition)"
compound="COC1CCCN(c2nc(-c3nccn3C)nn3cc(-c4ccn(C(C)C)n4)c(-c4ccccc4)c23)C1 (racemic) [Compound 21]" result="0 (0 = 0% inhibition)"
compound="COCC1CCN(c2nc(-c3ccccn3)nn3cc(-c4ccn(C(C)C)n4)c(-c4ccccc4)c23)C1 (racemic) [Compound 25]" result="A (A = 1-25% inhibition)"
compound="COc1cccc(Nc2nc(-c3nccn3C)nn3cc(-c4ccn(C(C)C)n4)c(-c4ccccc4)c23)n1 [Compound 23]" result="A (A = 1-25% inhibition)"

Reference source for all entries: patent US12459951B2
